Listed here: items and their measured Positive cases/total cases, Healthy donors.
- Test system: anti-peptide immunoglobulin G (IgG) in plasma
- experimental protocol: Anti-peptide IgG in plasma measured by the Luminex system
- Type: binding, human
- run conditions: Table 3, IgGs reactive to peptide in plasma of healthy donors

> print(dat)
                    sequence.content  reported.result
1  RYADRTKQI (KIF1C 340-348 peptide)             7/10

Value of Positive cases/total cases, Healthy donors reported for the sequence SYDESLSTL (KIF3C 347-355 peptide) is 0/10

Value of Positive cases/total cases, Healthy donors reported for the sequence GYLIIENFI (KIF3C 629-637 peptide) is 1/10
